- target.of.assay: Cytochrome P450 3A7 (Homo sapiens) (UniProt P24462)
- Sequence (P24462 whole entry, looked up): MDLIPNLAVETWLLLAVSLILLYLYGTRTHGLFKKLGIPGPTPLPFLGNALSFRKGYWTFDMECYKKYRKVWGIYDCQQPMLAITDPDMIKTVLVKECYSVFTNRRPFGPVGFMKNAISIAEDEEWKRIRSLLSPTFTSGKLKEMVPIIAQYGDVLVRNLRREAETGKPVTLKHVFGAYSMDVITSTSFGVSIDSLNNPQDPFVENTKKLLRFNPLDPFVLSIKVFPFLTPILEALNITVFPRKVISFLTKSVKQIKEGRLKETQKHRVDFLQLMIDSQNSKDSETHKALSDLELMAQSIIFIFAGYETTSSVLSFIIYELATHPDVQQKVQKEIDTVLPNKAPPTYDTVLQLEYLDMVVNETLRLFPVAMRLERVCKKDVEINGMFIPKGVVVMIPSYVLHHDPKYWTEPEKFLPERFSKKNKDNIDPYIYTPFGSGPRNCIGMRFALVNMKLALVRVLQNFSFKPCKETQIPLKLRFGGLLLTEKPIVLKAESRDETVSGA
- protocol.description: Cytochrome P450 family 3 subfamily A member 7 (CYP3A7) small molecule antagonists: luciferase biochemical qHTS assay (AID 1963596); note: nearly all actives have a fitted effect of over 40% in size; note: potency is the fitted concentration of half-maximal effect
- experimental.setup: P450-Glo CYP3A7 enzyme luminescence, 1 h; series mostly up to 57.4 µM
Inconclusive results are not listed. Active and inactive are the calls of the source. Calls come from the whole dose curve; as a rule, active = well fitted inhibition curve with a large enough effect; inconclusive = small, poorly fitted or top-dose-only effect; inactive = no such curve, though single readings can be large or run the other way.
measured.property: Potency

>>> result("CCOc1ccc(NC(=S)N2CCC(C(O)(c3ccccc3)c3ccccc3)CC2)cc1")
"inactive"
>>> result("CC[N+](C)(C)c1cccc(O)c1")
"inactive"
>>> result("Oc1c(I)cc(I)c2cccnc12")
"inactive"
>>> result("CCN(CCCO)CCCOc1ccc2c(Nc3cc(CC(=O)Nc4cccc(F)c4)[nH]n3)ncnc2c1")
"14.1 µM (active)"

Recorded result, CC(O)CN(CCN(CC(C)O)CC(C)O)CC(C)O (stereo unspecified) , Potency: inactive

Reported Potency of CC(C)CCCC(C)CCCC(C)CCCCC(C)CCCC(C)CCCC(C)C (stereo unspecified) : inactive

Sourced from PubChem BioAssay (NCATS)
